Origin of the recorded values: the RNAGym collection of RNA variant scans (doi:10.1093/molbev/msab373)

B1: Azoarcus group I ribozyme (parent)
chain: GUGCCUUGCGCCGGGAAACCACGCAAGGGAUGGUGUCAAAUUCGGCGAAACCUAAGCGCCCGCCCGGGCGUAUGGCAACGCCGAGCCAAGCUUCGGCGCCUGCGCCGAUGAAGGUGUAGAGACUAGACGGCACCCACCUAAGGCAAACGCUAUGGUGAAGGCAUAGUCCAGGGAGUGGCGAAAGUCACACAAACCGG

Variants of: B1
procedure details: reverse-splicing fitness (ratio to wild type); higher = more active; in vitro selection; Mg2+ level not given
Outcome: TRUE for reverse-splicing fitness of at least 0.005; FALSE for anything lower.

Examples from the recorded data:
# variant descriptor, class
measured = [
    ("C82U A111U A145U C169A U176A", "TRUE"),
    ("C82U A111G A145U C150U C169A U176G", "TRUE"),
    ("C82U A120C A145G C150G C169U U176A", "TRUE"),
    ("C82A A111U A120U A145U U176C", "TRUE"),
    ("C82G A111U A145C C150G C169G U176G", "TRUE"),
    ("C82U A111U A120U A145G C150A U176G", "FALSE"),
    ("C82A A111G A120G A145C C150A", "TRUE"),
    ("C82A A111G A145C C150A", "TRUE"),
    ("C82A A120U A145G C169A U176G", "FALSE"),
    ("C82A A111G A120U A145G C150A C169U U176G", "FALSE"),
]

Is the recorded value of reverse-splicing fitness equal to or greater than 0.005 for this variant? A120U A145U C150U C169A U176G
FALSE

Is the recorded value of reverse-splicing fitness equal to or greater than 0.005 for this variant? C82U A111C C150G U176A
TRUE

Is the recorded value of reverse-splicing fitness equal to or greater than 0.005 for this variant? C82A A111C A120C A145G C169G U176A
TRUE
